Assay: protein stability index of a GFP-peptide fusion (yeast GPS) (PSI 1-4); higher = more stable; sorted into four equal gates, so the index is relative within each strain
Conditions: ubr1∆
Could you label it true (1) if measured protein stability index is 3 or higher, and false (0) otherwise?

Here are 9 sequences together with their reported answers.
RESIDUE_STRING: DLEEAYATQVKTDNTVD [RPT3]
LABEL_CLASS: false (0)
//
RESIDUE_STRING: INVLTDQNPIQVVVDAI [RPS5]
LABEL_CLASS: false (0)
//
RESIDUE_STRING: SESGSKLNVDQFISSRQ [POP1]
LABEL_CLASS: true (1)
//
RESIDUE_STRING: KIRARSITLQGDVYDPE [SMC2]
LABEL_CLASS: false (0)
//
RESIDUE_STRING: SSNPLGITGNLDRIPMH [COB]
LABEL_CLASS: false (0)
//
RESIDUE_STRING: QEEEGELEHLTKKSKLE [DSN1]
LABEL_CLASS: true (1)
//
RESIDUE_STRING: TNGNNAGGGSNKSSVRP [MED6]
LABEL_CLASS: true (1)
//
RESIDUE_STRING: AGTQSSKFSKQQAKGAF [RPL24A]
LABEL_CLASS: true (1)
//
RESIDUE_STRING: PNERKAKQAKIRAGEFD [SNF2]
LABEL_CLASS: true (1)

Now let's try a different one.
Qu. Could you please find out whether EEGINKFKKEKFDIIIV [SRP54] has protein stability index that meets 3 or exceeds it?
Ans. false (0)

Source of measurements: the supplement of paper PMC9732359
